# Procedure Summary: Detection of encapsulation efficiency, drug loading concentration and total RNA concentration (RiboGreen)
# Assay type: physicochemical
# Condition Info: difference vs compound 21
rule met if encapsulation efficiency higher than compound 21 is below 30%. rule not met if not; exact matches included in rule not met.

For CCCCCCCCCCCOC(=O)CCCN(CCO)CCN(CCO)CCCCCC(=O)OC(CCCCCCCC)CCCCCCCC [YK-407] , is the recorded encapsulation efficiency higher than compound 21 below the cut-off of 30%?
rule met

Same read-out for CCCCCCCCC(CCCCCCCC)OC(=O)CCCCCN(CCO)CCN(CCO)CCCCCC(=O)OC(CCCCCCCC)CCCCCCCC [YK-401] ?
rule met

Same read-out for CCCCCCCCC(CCCCCCCC)COC(=O)CCCCCN(CCCO)CCCN(CCCO)CCCCCC(=O)OCC(CCCCCCCC)CCCCCCCC [YK-423] ?
rule not met

Same read-out for CCCCCCCCC(CCCCCCCC)C(=O)OCCCCCCN(CCO)CCN(CCO)CCCCCCOC(=O)C(CCCCCCCC)CCCCCCCC [YK-402] ?
rule not met

Same read-out for CCCCCCCCC(CCCCCCCC)COC(=O)CCCCCN(CCCO)CCN(CCCO)CCCCCC(=O)OCC(CCCCCCCC)CCCCCCCC [YK-422] ?
rule not met

Hello, the source for this data is patent US12545637B2, in case you need it.
